Quick note: these are IC50 numbers for system: JAK1 (Homo sapiens)
Sequence (P23458 whole entry): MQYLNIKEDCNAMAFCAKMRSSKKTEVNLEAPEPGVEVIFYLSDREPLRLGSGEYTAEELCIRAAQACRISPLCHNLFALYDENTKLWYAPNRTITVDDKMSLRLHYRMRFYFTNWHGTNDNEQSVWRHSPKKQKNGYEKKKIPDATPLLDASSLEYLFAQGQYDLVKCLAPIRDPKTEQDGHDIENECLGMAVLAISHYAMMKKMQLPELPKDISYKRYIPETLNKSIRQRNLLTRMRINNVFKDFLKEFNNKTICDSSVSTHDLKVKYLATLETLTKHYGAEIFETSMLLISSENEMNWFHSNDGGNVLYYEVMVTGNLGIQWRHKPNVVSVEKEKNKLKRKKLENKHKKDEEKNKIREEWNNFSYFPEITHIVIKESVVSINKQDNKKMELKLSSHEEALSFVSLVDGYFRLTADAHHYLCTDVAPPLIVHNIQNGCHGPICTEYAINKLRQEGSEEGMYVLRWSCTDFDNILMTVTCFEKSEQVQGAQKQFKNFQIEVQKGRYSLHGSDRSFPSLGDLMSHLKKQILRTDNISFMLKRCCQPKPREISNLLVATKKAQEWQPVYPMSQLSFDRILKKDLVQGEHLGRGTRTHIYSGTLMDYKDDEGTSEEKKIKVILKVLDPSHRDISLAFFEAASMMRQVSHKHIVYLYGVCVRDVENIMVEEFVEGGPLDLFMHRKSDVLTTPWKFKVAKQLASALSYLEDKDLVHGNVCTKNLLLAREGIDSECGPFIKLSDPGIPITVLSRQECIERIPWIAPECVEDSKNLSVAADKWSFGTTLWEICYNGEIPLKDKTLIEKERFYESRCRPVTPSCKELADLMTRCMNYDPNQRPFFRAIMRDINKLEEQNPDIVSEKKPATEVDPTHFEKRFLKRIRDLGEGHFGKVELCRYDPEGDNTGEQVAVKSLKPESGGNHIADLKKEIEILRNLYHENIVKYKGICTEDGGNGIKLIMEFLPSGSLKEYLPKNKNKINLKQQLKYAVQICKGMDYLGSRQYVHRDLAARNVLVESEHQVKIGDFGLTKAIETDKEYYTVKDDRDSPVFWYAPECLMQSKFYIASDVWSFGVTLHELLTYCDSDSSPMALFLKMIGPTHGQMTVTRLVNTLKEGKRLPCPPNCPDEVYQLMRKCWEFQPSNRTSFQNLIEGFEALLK

CCC1(n2cc(-c3nc(-c4cnn(C)c4)cc4nccn34)cn2)CN(S(=O)(=O)C(F)(F)F)C1 | 100 to 1000 nM
CCCC1(n2cc(-c3nc(-c4cnn(C)c4)cc4nccn34)cn2)CN(S(=O)(=O)C(F)(F)F)C1 | 100 to 1000 nM

Observed IC50 on JAK1 (Homo sapiens), entry `Cc1cc(-c2cc3nccn3c(-c3cnn(C4(CCF)CN(S(=O)(=O)C(F)(F)F)C4)c3)n2)[nH]n1` , equals 100 to 1000 nM

Record `Cn1cc(-c2cc3nccn3c(-c3cnn([C@@H](CC=C(F)F)C4CC4)c3)n2)cn1` / JAK1 (Homo sapiens), IC50 recorded as 10 to 100 nM

Bench note, JAK1 (Homo sapiens): entry `Cn1cc(-c2cc3nccn3c(-c3cnn(C(CC4CC4)CC4CC4)c3)n2)cn1` , its IC50 = 100 to 1000 nM

Tested system JAK1 (Homo sapiens); IC50 recorded for `Cn1cc(-c2cc3nccn3c(-c3cnn(C4(CCF)CN(S(=O)(=O)NC5CC5)C4)c3)n2)cn1` was 100 to 1000 nM

The reported IC50 value, JAK1 (Homo sapiens), for `Cn1cc(-c2cc3nccn3c(-c3ccn(C4(CCF)CN(CC#N)C4)c3)n2)cn1` reads 100 to 1000 nM

----------
Target: JAK3 (Homo sapiens)
Sequence (P52333 1-1124): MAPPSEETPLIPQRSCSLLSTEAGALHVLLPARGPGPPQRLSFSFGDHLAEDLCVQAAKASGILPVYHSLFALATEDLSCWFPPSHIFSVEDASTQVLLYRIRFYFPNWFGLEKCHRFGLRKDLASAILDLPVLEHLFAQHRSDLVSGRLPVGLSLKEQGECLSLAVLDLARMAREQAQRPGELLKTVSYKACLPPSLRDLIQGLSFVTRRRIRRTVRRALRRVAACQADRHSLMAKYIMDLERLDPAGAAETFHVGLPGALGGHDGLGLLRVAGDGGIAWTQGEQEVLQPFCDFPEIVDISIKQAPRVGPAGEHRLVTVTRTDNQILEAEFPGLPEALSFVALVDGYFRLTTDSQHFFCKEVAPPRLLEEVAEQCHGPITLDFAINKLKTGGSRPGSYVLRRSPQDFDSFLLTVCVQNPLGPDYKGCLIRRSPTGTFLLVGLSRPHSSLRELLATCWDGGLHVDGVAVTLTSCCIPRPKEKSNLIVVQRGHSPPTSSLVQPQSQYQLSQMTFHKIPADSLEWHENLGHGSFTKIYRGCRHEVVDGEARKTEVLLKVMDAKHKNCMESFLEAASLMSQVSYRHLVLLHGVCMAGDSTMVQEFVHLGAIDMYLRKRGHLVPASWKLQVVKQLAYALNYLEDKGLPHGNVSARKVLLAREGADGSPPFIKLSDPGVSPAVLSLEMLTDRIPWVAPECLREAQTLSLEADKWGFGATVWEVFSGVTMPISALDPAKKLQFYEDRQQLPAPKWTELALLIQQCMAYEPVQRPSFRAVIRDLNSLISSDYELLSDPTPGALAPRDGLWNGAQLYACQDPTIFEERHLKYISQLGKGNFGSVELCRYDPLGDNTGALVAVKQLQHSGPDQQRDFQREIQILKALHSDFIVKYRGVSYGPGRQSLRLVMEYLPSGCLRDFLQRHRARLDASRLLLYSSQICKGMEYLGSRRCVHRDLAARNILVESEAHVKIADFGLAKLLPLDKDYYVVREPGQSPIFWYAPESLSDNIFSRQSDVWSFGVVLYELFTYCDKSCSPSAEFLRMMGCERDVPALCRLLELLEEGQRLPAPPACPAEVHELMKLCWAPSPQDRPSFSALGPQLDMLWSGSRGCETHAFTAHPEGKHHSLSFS
pIC50: −log10 of the molar value.
ASSAY_METRIC: pIC50

# example entries with known answers
C=CC1(n2ccc(-c3nc(-c4cnn(C)c4)cc4nccn34)c2)CN(S(=O)(=O)C(F)(F)F)C1 [Example 27] | 7.00 to 8.00
Cn1cc(-c2cc3nccn3c(-c3cnn(C4(CC(C)(C)O)CN(S(=O)(=O)C(F)(F)F)C4)c3)n2)cn1 [Example 94] | < 6.00
CCn1cc(-c2nc(-c3cnn(C)c3)cc3nccn23)cn1 [Example 5] | < 6.00

In plain terms, COCCC(C1CCC1)n1cc(-c2nc(-c3cnn(C)c3)cc3nccn23)cn1 (centres unmarked) [Example 76] has a documented pIC50 of < 6.00

Given item COCCC(C1CC1(F)F)n1cc(-c2nc(-c3cnn(C)c3)cc3nccn23)cn1 (centres unmarked) [Example 31] , the value recorded as its pIC50 is 6.00 to 7.00

For Cn1cc(-c2cc3nccn3c(-c3cnn(C(CCF)C4CC4)c3)n2)cn1 (centres unmarked) [Example 17] the molecule record lists pIC50 as 6.00 to 7.00

Reference for the values: patent US20140228349A1
